- measured target: Escherichia coli CysE (Escherichia coli)
- Sequence (P0A9D4 1-273): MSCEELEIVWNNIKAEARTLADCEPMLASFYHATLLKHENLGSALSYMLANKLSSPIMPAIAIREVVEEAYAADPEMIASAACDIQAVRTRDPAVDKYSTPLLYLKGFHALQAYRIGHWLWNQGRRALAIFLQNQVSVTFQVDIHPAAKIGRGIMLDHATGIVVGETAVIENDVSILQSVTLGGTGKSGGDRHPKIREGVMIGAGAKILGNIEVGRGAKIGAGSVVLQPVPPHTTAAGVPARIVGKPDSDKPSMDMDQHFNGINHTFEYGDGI
- test protocol: L-Ser acetylation steady-state kinetics of isolated CysE
- details: L-Cys concentration around the IC50, 0.1 mM L-Ser (physiological); Fig. S5B

{"columns": ["line notation", "IC50"],
 "data": [
  ["N[C@@H](CS)C(=O)O", "~70 nM"]
]}
